meta.source: the supplement of paper PMC10567573

B1: PWWP2B (parent)
chain: TIRLRPRQVLCEKCKSTLSPPEAS

# Variants of: B1
# ASSAY_SUMMARY: protein stability index of a GFP-peptide fusion (GPS, HEK-293T) (PSI 1-6); higher = more stable;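 note: lentivirally expressed fusions sorted by FACS into six bins by GFP to DsRed ratio, PSI derived from sequencing read proportions per bin multiplied by bin number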
# CONDITION_INFO: c terminus: a fixed tail appended
PARAMETER_MEASURED: protein stability index

TIRLRPRQVLCEKCKSTLSPPEAQ	3.09
TIRLRPRQVLFEKCKSTLSPPEAS	2.53
TIRLRPRQVLCEKCKSTLSPPNAS	2.46
TIFLRPRQVLCEKCKSTLSPPEAS	2.02
TIRLRPRQVLCEKCKSTQSPPEAS	3.05
TIRLRPRQVLVEKCKSTLSPPEAS	3.25
TIRLRPRFVLCEKCKSTLSPPEAS	2.24
TMRLRPRQVLCEKCKSTLSPPEAS	2.76
TIRLDPRQVLCEKCKSTLSPPEAS	3.73
TIRLRPRQVLCEKCKSTLHPPEAS	2.68
TIRLRPRQVLCEKCPSTLSPPEAS	4.03
TIRQRPRQVLCEKCKSTLSPPEAS	3.04
TIRLRPRQVLYEKCKSTLSPPEAS	3.25
TIRLRPRQVLCEKCKSTLSPPESS	2.75
TIRLRPRQVDCEKCKSTLSPPEAS	3.9
TIRLRPRQVLCEKCKSTLCPPEAS	2.99
TIRLRPRQVLCEKCSSTLSPPEAS	2.74
TIRLRPRQVLCEKCKSTLSWPEAS	2.45
TIRLRPRQVLCEKNKSTLSPPEAS	4.05
TIRLRPRQVLCESCKSTLSPPEAS	3
TIRWRPRQVLCEKCKSTLSPPEAS	2.31
TIRLRPRQVLCEKCLSTLSPPEAS	2.76
TIRLRIRQVLCEKCKSTLSPPEAS	1.62
TIRLRPRQVLCEKEKSTLSPPEAS	4.23
TIRLRPRQVLCEKCKSTWSPPEAS	1.96
TIRLRPRQVLCEKCKSTLSPPEMS	3.01
EIRLRPRQVLCEKCKSTLSPPEAS	3.55
TIRLRPRQVLCEKSKSTLSPPEAS	3.84
TIRLRPRHVLCEKCKSTLSPPEAS	2.77
TICLRPRQVLCEKCKSTLSPPEAS	2.61
TIVLRPRQVLCEKCKSTLSPPEAS	2.7
WIRLRPRQVLCEKCKSTLSPPEAS	2.12
TIRLRPRQVLCLKCKSTLSPPEAS	1.97
TIRLRPRQVKCEKCKSTLSPPEAS	3.38
TIRLRGRQVLCEKCKSTLSPPEAS	3.25
TIRLRPRQVLCEKCKSTLMPPEAS	2.74
TIRLRPRQVLCEKCKSTLSPHEAS	2.79
